Measured Post-emergence action rating, Echino. accompanies every entry in the list below.
# Test system: Monocotyledonous and dicotyledonous test plants
# Procedure Summary: Post-emergence herbicidal action, greenhouse pot test, sprayed at the 2- to 3-leaf stage, 9-level rating after 2 to 3 weeks
# Type: in vivo
# Test Parameters: Echino., 250 g/ha, rated after 2 to 3 weeks, 9-level scale
Enter a number only.

O=C(C1=C(O)C2CCC(C2)C1=O)c1ccc(C(F)(F)F)nc1COCCOCOCc1ccccc1 (centres unmarked) [A857-B52]; 2
COCCOCc1nc(C(F)(F)F)ccc1C(=O)c1cnn(C)c1OS(C)(=O)=O [A10-C28]; 4
CCC(OC)OCCOCc1nc(C(F)(F)F)ccc1C(=O)C1=C(O)C2CCC(C2)C1=O (centres unmarked) [A838-B52]; 3
CC(C)(C)C(=O)OCc1nc(C(F)(F)F)ccc1C(=O)C1=C(O)C2CCC(C2)C1=O (centres unmarked) [A839-B52]; 2

We next turn to a different molecule, shown below.
Query block: Give recorded Post-emergence action rating, Echino.. O=C(C1=C(O)C2CCC(C2)C1=O)c1ccc(C(F)(F)F)nc1COCCOC1CCCCO1 (centres unmarked) [A842-B52]
Result block: 5

----------
Measured Post-emergence action rating, Echino. accompanies every entry in the list below.
# Tested on: Monocotyledonous and dicotyledonous test plants
# Procedure Summary: Post-emergence herbicidal action, greenhouse pot test, sprayed at the 2- to 3-leaf stage, 9-level rating after 2 to 3 weeks
# Format: in vivo
# Test Parameters: Echino., 250 g/ha, rated after 2 to 3 weeks, 9-level scale
Enter a number only.

CCOC(C)OCCOCc1nc(C(F)(F)F)ccc1C(=O)C1=C(O)C2CCC(C2)C1=O (centres unmarked); 2
COCCOCCOCCOCc1nc(C(F)(F)F)ccc1C(=O)C1=C(O)C2CCC(C2)C1=O (centres unmarked); 2
CCCCCCCC(=O)OCCOCc1nc(C(F)(F)F)ccc1C(=O)C1=C(O)C2CCC(C2)C1=O (centres unmarked); 2
CCN(CC)CC.COCCOCc1nc(C(F)(F)F)ccc1C(=O)C1=C(O)C2CCC(C2)C1=O (centres unmarked) [A10-B52 (Et3NH+)]; 2
C#CCCOCc1nc(C(F)(F)F)ccc1C(=O)C1=C(O)C2CCC(C2)C1=O (centres unmarked); 2
COCCOCc1nc(C(F)(F)F)ccc1C(=O)C1=C(O)C(C)(C)ON(C)C1=O; 4

Query block: Given C=CCOCc1nc(C(F)(F)F)ccc1C(=O)C1=C(O)C2CCC(C2)C1=O (centres unmarked) , report its Post-emergence action rating, Echino. on Monocotyledonous and dicotyledonous test plants.
Result block: 2

Query block: Given "COCCOCc1nc(C(F)(F)F)ccc1C(=O)c1c(C)nn(C)c1O" , report its Post-emergence action rating, Echino. on Monocotyledonous and dicotyledonous test plants.
Result block: 3

----------
Measured Pre-emergence action rating, Echino. accompanies every entry in the list below.
# Tested on: Monocotyledonous and dicotyledonous test plants
# Procedure Summary: Herbicidal action before emergence of the plants (pre-emergence action), greenhouse pot test, 9-level rating after 4 weeks
# Type: in vivo
# Test Parameters: Echino., 250 g/ha, rated after 4 weeks, 9-level scale
Enter a number only.

Example compounds with recorded Pre-emergence action rating, Echino.:
COCCOCc1nc(C(F)(F)F)ccc1C(=O)C1=C(O)C(C)(C)C(=O)C(C)(C)C1=O; 1
O=C(C1=C(O)C2CCC(C2)C1=O)c1ccc(C(F)(F)F)nc1COCC1CCCO1 (stereo not drawn); 1

Query block: Give recorded Pre-emergence action rating, Echino.. COCOCc1nc(C(F)(F)F)ccc1C(=O)C1=C(O)C2CCC(C2)C1=O (stereo not drawn)
Result block: 1

Query block: Give recorded Pre-emergence action rating, Echino.. COCCCOCc1nc(C(F)(F)F)ccc1C(=O)C1=C(O)C2CCC(C2)C1=O (stereo not drawn)
Result block: 1

Query block: Give recorded Pre-emergence action rating, Echino.. CC(=O)OCc1nc(C(F)(F)F)ccc1C(=O)C1=C(O)C2CCC(C2)C1=O (stereo not drawn)
Result block: 1

Query block: Give recorded Pre-emergence action rating, Echino.. O=C(C1=C(O)C2CCC(C2)C1=O)c1ccc(C(F)(F)F)nc1COC1CCCCC1 (stereo not drawn)
Result block: 3

Query block: Give recorded Pre-emergence action rating, Echino.. "CC#CCOCc1nc(C(F)(F)F)ccc1C(=O)c1cnn(C)c1O"
Result block: 2

Query block: Give recorded Pre-emergence action rating, Echino.. O=C(C1=C(O)C2CCC(C2)C1=O)c1ccc(C(F)(F)F)nc1COCC1CC1 (stereo not drawn)
Result block: 1

Query block: Give recorded Pre-emergence action rating, Echino.. O=C(C1=C(O)C2CCC(C2)C1=O)c1ccc(C(F)(F)F)nc1COC1COCOC1 (stereo not drawn)
Result block: 1

----------
Measured Post-emergence action rating, Ipopur. accompanies every entry in the list below.
# Tested on: Monocotyledonous and dicotyledonous test plants
# Procedure Summary: Post-emergence herbicidal action, greenhouse pot test, sprayed at the 2- to 3-leaf stage, 9-level rating after 2 to 3 weeks
# Assay type: in vivo
# Test Parameters: Ipopur., 250 g/ha, rated after 2 to 3 weeks, 9-level scale

Example compounds with recorded Post-emergence action rating, Ipopur.:
O=C(C1=C(O)C2CCC(C2)C1=O)c1ccc(C(F)(F)F)nc1COCCOC1CCCCO1 (centres unmarked) [A842-B52]; 3
O=C(C1=C(O)C2CCC(C2)C1=O)c1ccc(C(F)(F)F)nc1COCC1COCO1 (centres unmarked) [A852-B52]; 3
CCOC(=O)C1(C)CCC(=O)C(C(=O)c2ccc(C(F)(F)F)nc2COCCOC)=C1O (centres unmarked) [A10-B14]; 2

Query block: Given N#CCCOCc1nc(C(F)(F)F)ccc1C(=O)C1=C(O)C2CCC(C2)C1=O (centres unmarked) [A849-B52] , report its Post-emergence action rating, Ipopur. on Monocotyledonous and dicotyledonous test plants.
Result block: 2

Query block: Given C=CCOCc1nc(C(F)(F)F)ccc1C(=O)C1=C(O)C2CCC(C2)C1=O (centres unmarked) [A19-B52] , report its Post-emergence action rating, Ipopur. on Monocotyledonous and dicotyledonous test plants.
Result block: 1

Query block: Given COCCOCc1nc(C(F)(F)Cl)ccc1C(=O)C1=C(O)C2CCC(C2)C1=O (centres unmarked) [A556-B52] , report its Post-emergence action rating, Ipopur. on Monocotyledonous and dicotyledonous test plants.
Result block: 2

----------
Measured Pre-emergence action rating, Abutilon accompanies every entry in the list below.
# System: Monocotyledonous and dicotyledonous test plants
# Procedure Summary: Herbicidal action before emergence of the plants (pre-emergence action), greenhouse pot test, 9-level rating after 4 weeks
# Assay type: in vivo
# Set-up: key: 9-level scale: 1 = complete damage, 9 = no effect
# Test Parameters: Abutilon, 250 g/ha, rated after 4 weeks, 9-level scale

Example compounds with recorded Pre-emergence action rating, Abutilon:
CCOCCOCc1nc(C(F)(F)F)ccc1C(=O)c1cnn(C)c1O; 1
C#CCOCc1nc(C(F)(F)F)ccc1C(=O)C1=C(O)C2CCC(C2)C1=O (centres unmarked); 2
COCCOCc1nc(C(F)(F)F)ccc1C(=O)C1=C(O)C(C)(C)CC(C)C1=O (centres unmarked); 3
O=C(C1=C(O)C2CCC(C2)C1=O)c1ccc(C(F)(F)F)nc1COCC1CCCCO1 (centres unmarked); 5
O=C(C1=C(O)C2CCC(C2)C1=O)c1ccc(C(F)(F)F)nc1COC1CCCCC1 (centres unmarked); 4

Query block: Give recorded Pre-emergence action rating, Abutilon. CC(=O)OCc1nc(C(F)(F)F)ccc1C(=O)C1=C(O)C2CCC(C2)C1=O (centres unmarked)
Result block: 1

Query block: Give recorded Pre-emergence action rating, Abutilon. "COCCOCc1nc(C(F)(F)F)ccc1C(=O)c1cnn(C)c1OS(=O)(=O)c1ccc(C)cc1"
Result block: 1

Query block: Give recorded Pre-emergence action rating, Abutilon. CCCCCCCC(=O)OCc1nc(C(F)(F)F)ccc1C(=O)C1=C(O)C2CCC(C2)C1=O (centres unmarked)
Result block: 1

----------
Measured Pre-emergence action rating, Abutilon accompanies every entry in the list below.
# Tested on: Monocotyledonous and dicotyledonous test plants
# Procedure Summary: Herbicidal action before emergence of the plants (pre-emergence action), greenhouse pot test, 9-level rating after 4 weeks
# Format: in vivo
# Test Parameters: Abutilon, 250 g/ha, rated after 4 weeks, 9-level scale

Example molecules with recorded Pre-emergence action rating, Abutilon:
CCN(CC)CC.O=C(C1=C(O)C2CCC(C2)C1=O)c1ccc(C(F)(F)F)nc1COC1CCCO1 (stereo not drawn) [A837-B52 (Et3NH+)]; 1
O=C(OCc1nc(C(F)(F)F)ccc1C(=O)C1=C(O)C2CCC(C2)C1=O)c1ccccc1 (stereo not drawn); 1
CC(C)OCc1nc(C(F)(F)F)ccc1C(=O)c1cnn(C)c1O; 1
COCCOCCOCc1nc(C(F)(F)F)ccc1C(=O)C1=C(O)C2CCC(C2)C1=O (stereo not drawn); 2
COCCOCc1nc(C(F)(F)F)ccc1C(=O)c1c(C)nn(C)c1O; 1
O=C(C1=C(O)C2CCC(C2)C1=O)c1ccc(C(F)(F)F)nc1COC1COC1 (stereo not drawn); 1

Query block: Give recorded Pre-emergence action rating, Abutilon. CCOC(=O)C1(C)CCC(=O)C(C(=O)c2ccc(C(F)(F)F)nc2COCCOC)=C1O (stereo not drawn)
Result block: 1

Query block: Give recorded Pre-emergence action rating, Abutilon. "COCCOCc1nc(C(F)(F)F)ccc1C(=O)C1=C(O)CCC(C)(C)C1=O"
Result block: 1

Query block: Give recorded Pre-emergence action rating, Abutilon. CS(=O)(=O)CCOCc1nc(C(F)(F)F)ccc1C(=O)C1=C(O)C2CCC(C2)C1=O (stereo not drawn)
Result block: 1

Query block: Give recorded Pre-emergence action rating, Abutilon. COCCOCc1nc(C(F)F)ccc1C(=O)C1=C(O)C2CCC(C2)C1=O (stereo not drawn)
Result block: 1

Query block: Give recorded Pre-emergence action rating, Abutilon. CC#CCOCc1nc(C(F)(F)F)ccc1C(=O)C1=C(O)C2CCC(C2)C1=O (stereo not drawn)
Result block: 3
